The measured values listed here are drawn from PubChem BioAssay (NCATS).

- Tested on: HEK293
- assay-method-text: Cytotoxic Profiling of Annotated Libraries Using Quantitative High-Throughput Screening (AID 1296008); also: % is scaled to controls: 0 for no effect and ±100 for the full control effect; nearly all actives have a fitted effect of over 60% in size
- recorded-conditions: Five cell lines viability, CellTiter-Glo ATP luminescence, 48-72 h; hits give low values
Inconclusive results are not listed. Where a SMILES comes first, the peptide text is derived from it. [ ]: non-standard residue; d: D form. pGlu = O=C1CC[C@@H](C(=O)O)N1; Thz = O=C(O)[C@@H]1CSCN1
Kindly state max response for each of the entries shown.
Give the value, in units of %, as a plain number.

q: Identify measured max response corresponding to CCCCCCCCCCCCCCCC(=O)OC(C)C
a: -10.5

q: Identify measured max response corresponding to CCCCCCCCCCCCOCCO
a: -2.23

q: Identify measured max response corresponding to CC1(C)[C@@H](O[C@H]2O[C@H](C(=O)O)[C@@H](O)[C@H](O)[C@H]2O[C@@H]2O[C@H](C(=O)O)[C@@H](O)[C@H](O)[C@H]2O)CC[C@]2(C)[C@H]3C(=O)C=C4[C@@H]5C[C@@](C)(C(=O)O)CC[C@]5(C)CC[C@@]4(C)[C@]3(C)CC[C@@H]12
a: -5.35

q: Identify measured max response corresponding to Nc1ccc(O)c(C(=O)O)c1
a: -8.37

q: Identify measured max response corresponding to O=C(OCc1ccccc1)c1ccccc1
a: -2.07

q: Identify measured max response corresponding to CC(=O)O[C@H]1C[C@@]2(C)[C@@H](C[C@@H](O)[C@H]3[C@@]4(C)CC[C@@H](O)[C@@H](C)[C@@H]4CC[C@@]32C)/C1=C(\CCC=C(C)C)C(=O)O
a: -11.3

q: Identify measured max response corresponding to CN(C)CCn1nnnc1SCC1=C(C(=O)O)N2C(=O)[C@@H](NC(=O)Cc3csc(N)n3)[C@H]2SC1
a: -4.49

q: Identify measured max response corresponding to O=[N+]([O-])c1ccc(CNc2nc(NCc3cccc(C(F)(F)F)c3)nc3nc[nH]c23)cc1
a: -22

q: Identify measured max response corresponding to CC(C(=O)O)c1ccc(C(=O)c2ccccc2)s1 (stereo not given)
a: 0.794

q: Identify measured max response corresponding to Nc1cc(-c2ccncc2)c[nH]c1=O
a: 1.99

q: Identify measured max response corresponding to O=C(O)CC1CC(c2ccccc2)=NO1 (stereo not given)
a: 0.396

q: Identify measured max response corresponding to O=C(CCN1CCN(CCO)CC1)N1c2ccccc2Sc2ccc(C(F)(F)F)cc21
a: -1.82

q: Identify measured max response corresponding to CC(C(=O)O)c1ccc2c(c1)[nH]c1ccc(Cl)cc12 (stereo not given)
a: -1.79

q: Identify measured max response corresponding to C/C(=N\O)c1ccc(OCC(=O)N2CCCCC2)cc1
a: 2.8

q: Identify measured max response corresponding to COc1cc(CNC(=O)CCCC/C=C/C(C)C)ccc1O
a: -1.55

q: Identify measured max response corresponding to CCCCCCCC/C=C/C(=O)O
a: 0.673

q: Identify measured max response corresponding to Cc1c(N)c(=O)n(-c2ccccc2)n1C
a: -1.84

q: Identify measured max response corresponding to COC(=O)[C@H]1[C@H]2C[C@@H]3c4[nH]c5cc(OC)ccc5c4CCN3C[C@H]2C[C@@H](OC(=O)/C=C/c2cc(OC)c(OC)c(OC)c2)[C@@H]1OC
a: -6.09

q: Identify measured max response corresponding to CS(=O)(=O)c1ccc(-n2nc(C(F)(F)F)cc2-c2ccc(F)cc2)cc1
a: 1.42

q: Identify measured max response corresponding to O=C1CC[C@@H](C(=O)N2CSC[C@H]2C(=O)O)N1 ([pGlu]-[Thz]-OH)
a: -11.6

q: Identify measured max response corresponding to O=C(O)Cc1ccc(-c2ccccc2)cc1
a: -6.63

q: Identify measured max response corresponding to Nc1ccc([N+](=O)[O-])cc1O
a: -27.4

q: Identify measured max response corresponding to COc1cc(/C=C/C(=O)N2CCN(CC(=O)N3CCCC3)CC2)cc(OC)c1OC
a: 1.99

q: Identify measured max response corresponding to O=C(O)Cc1ccc2c(c1)C(=O)c1ccccc1CO2
a: -3.93

q: Identify measured max response corresponding to Cc1ccc(C(=O)c2ccc(CC(=O)O)n2C)cc1
a: -2.23

q: Identify measured max response corresponding to Cc1c(C(=O)O)c(O)cc2c1C(=O)c1c(O)c([C@@H]3O[C@H](CO)[C@@H](O)[C@H](O)[C@H]3O)c(O)c(O)c1C2=O
a: -35.5

q: Identify measured max response corresponding to CC(C)(C)c1nnc(NS(=O)(=O)c2ccc(N)cc2)s1
a: -1.6

q: Identify measured max response corresponding to CCCCCCCCCCCC(=O)[O][Sn]([CH2]CCC)([CH2]CCC)[O]C(=O)CCCCCCCCCCC
a: -9.3

q: Identify measured max response corresponding to CCOc1ccc2nc(S(N)(=O)=O)sc2c1
a: -2.22

q: Identify measured max response corresponding to c1ccc2sc(SSc3nc4ccccc4s3)nc2c1
a: 3.28
